Listing: pIC50 of selected molecules
- tested_target: GABAA receptor
- experimental_protocol: [35S]-TBPS binding assay, rat brain cortical membranes, in the presence of GABA
- condition_label: inhibition of 3 nM [35S]-TBPS binding, 5 mM GABA, 90 min, room temp
pIC50: −log10 of the molar value.

Consider the worked cases shown below.
{"molecule": "C[C@@H]1CC[C@H]([C@H](C)Cn2cc(C#N)cn2)[C@@]2(C)CC[C@H]3[C@@H](CC[C@@H]4C[C@](C)(O)CC[C@@H]43)[C@H]12", "observation_type": "pIC50", "observed_result": "> 7.00"}
{"molecule": "C[C@H](Cn1cc(C#N)cn1)[C@H]1CC[C@H]2[C@@H]3CC[C@H]4CC[C@](C)(O)CC[C@]4(C)[C@H]3CC[C@]12C", "observation_type": "pIC50", "observed_result": "> 7.00"}
{"molecule": "COC[C@@]1(O)CC[C@@H]2C3CC[C@]4(C)[C@@H]([C@@H](C)NC(=O)c5ccc(C#N)cc5)CCC[C@H]4[C@@H]3CC[C@@H]2C1 (some centres unmarked)", "observation_type": "pIC50", "observed_result": "6.00 to 7.00"}
{"molecule": "C[C@@H](Nc1ccc(C#N)cc1)[C@H]1CCC[C@H]2[C@@H]3CC[C@@H]4C[C@](C)(O)CC[C@@H]4C3CC[C@]12C (some centres unmarked)", "observation_type": "pIC50", "observed_result": "> 7.00"}

Now for another entry.
The reported pIC50 of the molecule CN(C[C@H]1CCC[C@H]2[C@@H]3CC[C@@H]4C[C@](C)(O)CC[C@@H]4[C@H]3CC[C@]12C)S(=O)(=O)c1ccccc1 was > 7.00
